# Method summary: The drug is tested on Clostridium sporogenes strain: ATCC15579 for biotransformation. The drug concentrations were measured before and after a 12-h incubation by liquid-chromatography-coupled mass spectrometry (LC–MS)
# Study conditions: 2 µM
Recorded metric: Bacterial Biotransformation

Guide cases for Bacterial Biotransformation, answers given:
Query: Would you mind telling me what Bacterial Biotransformation value was observed for CN(C)C(=O)C(CCN1CCC(O)(c2ccc(Cl)cc2)CC1)(c1ccccc1)c1ccccc1 [LOPERAMIDE] ?
Response: Compound metabolized

Query: Now the compound CCOC(=O)[C@H](CCc1ccccc1)N[C@@H](C)C(=O)N1[C@H](C(=O)O)C[C@H]2CCCC[C@@H]21
Response: Compound metabolized

Query: Here is the next compound: CN1CCC(=C2c3ccccc3CCc3cccnc32)CC1.O=C(O)/C=C\C(=O)O.O=C(O)/C=C\C(=O)O [AZATADINE MALEATE]
Response: Compound NOT metabolized

Query: Can you check CCC(=O)NCC[C@@H]1CCc2ccc3c(c21)CCO3 next?
Response: Compound NOT metabolized

Query: Item: Cc1ccnc2c1NC(=O)c1cccnc1N2C1CC1
Response: Compound NOT metabolized

Query: Next: CC(=O)O[C@]1(C(C)=O)CC[C@H]2[C@@H]3C=C(Cl)C4=CC(=O)[C@@H]5C[C@@H]5[C@]4(C)[C@H]3CC[C@@]21C [CYPROTERONE ACETATE]
Response: Compound metabolized

Query: CCOc1ccc2nc(S(N)(=O)=O)sc2c1 [ETHOXZOLAMIDE] ?
Response: Compound metabolized

Query: Could you do the same for CCCCCOC(=O)Nc1nc(=O)n([C@@H]2O[C@H](C)[C@@H](O)[C@H]2O)cc1F , please?
Response: Compound NOT metabolized

// below: Bacterial Biotransformation requested for another compound
Query: Sample CCN(CC)CCOCCOC(=O)C1(c2ccccc2)CCCC1.O=C(O)CC(O)(CC(=O)O)C(=O)O [CARBETAPENTANE CITRATE] — what was its Bacterial Biotransformation?
Response: Compound metabolized

====

# Method summary: The drug is tested on Bacteroides caccae strain: ATCC43185 for biotransformation. The drug concentrations were measured before and after a 12-h incubation by liquid-chromatography-coupled mass spectrometry (LC–MS)
# Study conditions: 2 µM
Recorded metric: Bacterial Biotransformation

Query: Please give the measured Bacterial Biotransformation for this compound: CN(C)C(=O)Oc1cc(OC(=O)N(C)C)cc(C(O)CNC(C)(C)C)c1 (stereo not drawn) [BAMBUTEROL]
Response: Compound NOT metabolized

Query: Another compound: CC(C)(Oc1ccc(CCNC(=O)c2ccc(Cl)cc2)cc1)C(=O)O [BEZAFIBRATE]
Response: Compound metabolized

Query: # iterate: CC#C[C@]1(O)CC[C@H]2[C@@H]3CCC4=CC(=O)CCC4=C3[C@@H](c3ccc(N(C)C)cc3)C[C@@]21C [MIFEPRISTONE]
Response: Compound NOT metabolized

Query: Also CCCN1C[C@H](CSC)C[C@@H]2c3cccc4[nH]cc(c34)C[C@H]21.CS(=O)(=O)O [PERGOLIDE MESYLATE] ?
Response: Compound NOT metabolized

Query: Similarly, CS(=O)(=O)O.O.O.O.O=C1Cc2cc(CCN3CCN(c4nsc5ccccc45)CC3)c(Cl)cc2N1 [ZIPRASIDONE MESYLATE] ?
Response: Compound NOT metabolized

Further cases:
Query: # get_value(readout='Bacterial Biotransformation', item= COc1c2occc2cc2ccc(=O)oc12 [METHOXSALEN] )
Response: Compound metabolized

Query: Try this compound too: O=c1[nH]c2ccccc2n1C1CCN(CCCC(c2ccc(F)cc2)c2ccc(F)cc2)CC1 [PIMOZIDE]
Response: Compound NOT metabolized

Query: Repeat for the following compound: CCCCCOC(=O)Nc1nc(=O)n([C@@H]2O[C@H](C)[C@@H](O)[C@H]2O)cc1F [CAPECITABINE]
Response: Compound NOT metabolized
